Documented relative viability across a set of molecules
system: HT1080; assay: relative viability vs DMSO control (72 h) (fraction); higher = more viable cells; conditions: 0.01372 µM
Hey, just send me the number, nothing else.

Examples from the recorded data:
molecule	readout-number
O=C(c1ccc(F)c(F)c1Nc1ccc(I)cc1F)N1CC(O)([C@@H]2CCCCN2)C1	1.06
O=S(=O)(c1cccc2c(O)nccc12)N1CCCNCC1 [Hydroxyfasudil]	1.1
Cc1cc(F)c(C(=O)Nc2cccc(-c3nncn3C(C)C)n2)cc1-n1cnc(C2CC2)c1	1.05
COc1cc2ncnc(Nc3ccc(F)c(Cl)c3)c2cc1OCCCN1CCOCC1	1.06

Okay, next one:
Task: For HT1080, give the measured relative viability of the entry CNC(=O)c1cccc2cc(Oc3ccnc4cc(OCC5(N)CC5)c(OC)cc34)ccc12
Result: 1.1

====

system: HT1080; assay: relative viability vs DMSO control (72 h) (fraction); higher = more viable cells; conditions: 10 µM
Documented relative viability across a set of molecules
Hey, just send me the number, nothing else.

Task: Give a short answer stating reported relative viability for CCOc1cc2ncc(C#N)c(Nc3ccc(OCc4ccccn4)c(Cl)c3)c2cc1NC(=O)/C=C/CN(C)C .
Result: 0.00637

Task: Give a short answer stating reported relative viability for COc1cc(Nc2ncc3c(n2)-c2ccc(Cl)cc2C(c2c(F)cccc2OC)=NC3)ccc1C(=O)O .
Result: 0.668

Task: Give a short answer stating reported relative viability for CC(=O)c1c(C)c2cnc(Nc3ccc(N4CCNCC4)cn3)nc2n(C2CCCC2)c1=O .
Result: 0.44

Task: Give a short answer stating reported relative viability for O=S(=O)(c1cccc2c(O)nccc12)N1CCCNCC1 [Hydroxyfasudil] .
Result: 1.1

====

test system: SW1353; experiment: standardised AUC of viability dose-response curve (72 h) (fraction (0-1)); higher = less growth inhibition (more resistant)
measurement-type: standardised AUC
Hey, just send me the number, nothing else.

Examples from the recorded data:
compound	standardised AUC
CO[C@H]1C[C@@H]2CC[C@@H](C)[C@@](O)(O2)C(=O)C(=O)N2CCCC[C@H]2C(=O)O[C@H]([C@H](C)C[C@@H]2CC[C@@H](OC(=O)C(C)(CO)CO)[C@H](OC)C2)CC(=O)[C@H](C)/C=C(\C)[C@@H](O)[C@@H](OC)C(=O)[C@H](C)C[C@H](C)/C=C/C=C/C=C/1C	0.883
O=S(=O)(c1cccc2c(O)nccc12)N1CCCNCC1 [HYDROXYFASUDIL]	0.965
O=C(/C=C\n1cnc(-c2cc(C(F)(F)F)cc(C(F)(F)F)c2)n1)NNc1cnccn1 [SELINEXOR]	0.822
CNC(=O)c1c(C)oc2cc(Oc3ncnc4cc(OC)c(OC)cc34)ccc12	0.932
CN(C)CCCOc1ccc(-c2ccc3ncc4c(c3c2)n(C2CCOCC2)c(=O)n4C)cn1	0.917

Task: Give a short answer stating reported standardised AUC for COC(=O)c1ccc2c(c1)NC(=O)/C2=C(\Nc1ccc(N(C)C(=O)CN2CCN(C)CC2)cc1)c1ccccc1 .
Result: 0.966

Task: Give a short answer stating reported standardised AUC for Cc1[nH]c(/C=C2\C(=O)Nc3ccccc32)c(C)c1CCC(=O)O [ORANTINIB] .
Result: 0.964

====

test system: HS729; test: relative viability vs DMSO control (72 h) (fraction); higher = more viable cells; details: 0.1235 µM
Documented relative viability across a set of molecules
Hey, just send me the number, nothing else.

Examples from the recorded data:
molecule	readout-number
CN(C)C/C=C/C(=O)Nc1cc2c(Nc3ccc(F)c(Cl)c3)ncnc2cc1O[C@H]1CCOC1 [Afatinib]	0.937
CO[C@H]1C[C@@H]2CC[C@@H](C)[C@@](O)(O2)C(=O)C(=O)N2CCCC[C@H]2C(=O)O[C@H]([C@H](C)C[C@@H]2CC[C@@H](OC(=O)C(C)(CO)CO)[C@H](OC)C2)CC(=O)[C@H](C)/C=C(\C)[C@@H](O)[C@@H](OC)C(=O)[C@H](C)C[C@H](C)/C=C/C=C/C=C/1C [Temsirolimus]	0.811
C=CC(=O)N1CCC(CNc2ncnc(N)c2-c2ccc(Oc3ccccc3)cc2)CC1 [Evobrutinib]	1.01
O=C1CCc2c(Oc3ccc4c(c3)[C@@H]3[C@H](O4)[C@H]3c3nc4cc(C(F)(F)F)ccc4[nH]3)ccnc2N1 [Lifirafenib]	0.871
CN(C)C(=O)c1cc2cnc(Nc3ccc(N4CCNCC4)cn3)nc2n1C1CCCC1 [Ribociclib]	0.928
CN(C)CCCOc1ccc(-c2ccc3ncc4c(c3c2)n(C2CCOCC2)c(=O)n4C)cn1 [AZD-0156]	0.857

Task: Give a short answer stating reported relative viability for CC(=O)c1c(C)c2cnc(Nc3ccc(N4CCNCC4)cn3)nc2n(C2CCCC2)c1=O [Palbociclib] .
Result: 0.987

Task: Give a short answer stating reported relative viability for Cn1cnc2c(F)c(Nc3ccc(Br)cc3Cl)c(C(=O)NOCCO)cc21 [Selumetinib] .
Result: 0.849
